Where do the numbers come from? From paper PMC10709652.

Biological target: Srs2 898 F68A (Saccharomyces cerevisiae, UniProt P12954 1-898, F68A)
Sequence (P12954 1-898 F68A): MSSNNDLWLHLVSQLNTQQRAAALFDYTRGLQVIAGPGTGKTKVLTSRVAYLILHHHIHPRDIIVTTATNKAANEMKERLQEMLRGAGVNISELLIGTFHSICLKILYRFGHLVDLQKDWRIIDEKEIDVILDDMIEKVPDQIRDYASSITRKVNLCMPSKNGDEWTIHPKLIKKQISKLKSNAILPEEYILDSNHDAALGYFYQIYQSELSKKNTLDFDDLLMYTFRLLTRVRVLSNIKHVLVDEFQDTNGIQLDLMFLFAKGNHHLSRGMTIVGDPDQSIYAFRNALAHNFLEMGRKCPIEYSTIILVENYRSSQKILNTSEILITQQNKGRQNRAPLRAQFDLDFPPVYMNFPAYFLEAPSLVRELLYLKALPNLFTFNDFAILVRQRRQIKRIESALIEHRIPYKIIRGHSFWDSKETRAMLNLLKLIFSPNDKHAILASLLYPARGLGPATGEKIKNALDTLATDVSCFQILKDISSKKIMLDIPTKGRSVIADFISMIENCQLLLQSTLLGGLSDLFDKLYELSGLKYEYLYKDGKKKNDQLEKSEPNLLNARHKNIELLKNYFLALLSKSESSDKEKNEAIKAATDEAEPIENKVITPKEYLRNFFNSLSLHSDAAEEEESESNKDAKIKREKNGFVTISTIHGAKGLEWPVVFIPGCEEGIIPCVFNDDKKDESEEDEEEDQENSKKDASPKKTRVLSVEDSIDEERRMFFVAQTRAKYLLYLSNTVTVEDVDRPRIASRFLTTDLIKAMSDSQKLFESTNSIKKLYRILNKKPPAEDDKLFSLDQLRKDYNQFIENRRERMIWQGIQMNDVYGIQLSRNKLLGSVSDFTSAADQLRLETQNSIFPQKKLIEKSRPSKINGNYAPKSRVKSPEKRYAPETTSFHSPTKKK
Experiment: EMSA; no ATP; 30 mM Tris-HCl pH 7.6, 100 mM KCl, 2 mM MgCl2, 1 mM DTT, 0.2 mg/mL BSA, 30 °C 10 min, no ATP; 1.3 µM (nucleotides) ssDNA, 10-100 nM protein; 10% native PAGE in
Conditions: protein: recombinant; tags: N-terminal GFP; label: 5' fluorescein
Reported Property: Kd (nM)
Answers are plain numbers, in nM.

Problem: What value of Kd has been recorded for this entry: ATTAAGCTCTAAGCCATGAATTCAAATGACCTCTTATCAA (ssDNA) [40-nt ssDNA]
Solution: 31
